Please provide measured selectivity ratio for the entries that follow.
- protocol: Selectivity index, ratio of EC50 for human MRC5 cells to EC50 for antitrypanosomal activity against Trypanosoma brucei brucei
- Type: toxicity
- measurement_conditions: read-out: Ratio EC50
Answers are plain numbers.

Problem: Consider the molecule shown here: "Nc1ncnc2c1c(I)cn2[C@@H]1O[C@H](CO)[C@@H](F)[C@H]1O" What is its recorded selectivity ratio?
Result: 201

Problem: What do we get for "C=Cc1cn([C@@H]2O[C@H](CO)[C@@H](F)[C@H]2O)c2ncnc(N)c12" ?
Result: 25

Problem: Also "Nc1ncnc2c1c(C(F)(F)F)cn2[C@@H]1O[C@H](CO)[C@@H](F)[C@H]1O" , if possible.
Result: 3

Your task in this section: give selectivity ratio for each listed record.
1. Nc1ncnc2c1c(F)cn2[C@@H]1O[C@H](CO)[C@@H](F)[C@H]1O
2. Nc1ncnc2c1c(-c1ccc(Cl)cc1)cn2[C@@H]1O[C@H](CO)[C@H](F)[C@H]1O
3. Nc1ncnc2c1c(-c1ccc(Cl)c(Cl)c1)cn2[C@@H]1O[C@H](CO)[C@@H](F)[C@H]1O
4. C#Cc1cn([C@@H]2O[C@H](CO)[C@@H](F)[C@H]2O)c2ncnc(N)c12
5. COc1ncnc2c1c(Br)cn2[C@@H]1O[C@H](CO)[C@@H](F)[C@H]1O

Result:
1. 9
2. 4
3. 1
4. 4
5. 7

###

- System: Trypanosoma cruzi
- protocol: Antitrypanosomal activity against Trypanosoma cruzi Tulahuen CL2 infected in human MRC5 cells assessed as inhibition of parasite growth incubated for 7 days by chlorophenol red-fl-D-galactopyranoside based spectrophotometric analysis
- Assay type: functional, organism-based
- measurement_conditions: Tulahuen CL2, MRC5, 168 h
metric: EC50 (µM)
One number for each entry, in µM.

Problem: Test system Trypanosoma cruzi; read-out EC50; what value for "Nc1ncnc2c1c(I)cn2[C@@H]1O[C@H](CO)[C@@H](F)[C@H]1O" ?
Result: 0.039

For every listed record, write down its EC50.
1. COc1ccc(-c2cn([C@@H]3O[C@H](CO)[C@@H](F)[C@H]3O)c3ncnc(N)c23)cc1
2. C#Cc1cn([C@@H]2O[C@H](CO)[C@@H](F)[C@H]2O)c2ncnc(N)c12
3. Nc1ncnc2c1c(Br)cn2[C@@H]1O[C@H](CO)[C@@H](F)[C@H]1O
4. Nc1ncnc2c1c(-c1ccc(Cl)c(Cl)c1)cn2[C@@H]1O[C@H](CO)[C@@H](F)[C@H]1O

Result:
1: 8.61; 2: 0.04; 3: 0.041; 4: 0.22

Batch of 5 molecules: report EC50 for each.
1. NC(=O)c1cn([C@@H]2O[C@H](CO)[C@@H](F)[C@H]2O)c2ncnc(N)c12
2. Cc1cn([C@@H]2O[C@H](CO)[C@@H](F)[C@H]2O)c2ncnc(N)c12
3. Nc1nc2c(ncn2[C@@H]2O[C@H](CO)[C@@H](F)[C@H]2O)c(=O)[nH]1
4. O=c1[nH]cnc2c1ncn2[C@@H]1O[C@H](CO)[C@@H](F)[C@H]1O
5. COc1ncnc2c1ncn2[C@@H]1O[C@H](CO)[C@@H](F)[C@H]1O

Result:
7.1
13.1
34.6
4.28
30.1

// for each molecule below, give its EC50
1. Cc1cc(-c2cn([C@@H]3O[C@H](CO)[C@H](F)[C@H]3O)c3ncnc(N)c23)ccc1Cl
2. Nc1ncnc2c1c(-c1ccc(F)cc1)cn2[C@@H]1O[C@H](CO)[C@H](F)[C@H]1O
3. Nc1ncnc2c1c(-c1ccc(Cl)cc1)cn2[C@@H]1O[C@H](CO)[C@H](F)[C@H]1O
4. Nc1ncnc2c1ncn2[C@@H]1O[C@H](CO)[C@@H](F)[C@H]1O

Result:
1: 0.75; 2: 1.45; 3: 0.17; 4: 0.55

Return reported EC50 values for all items listed beneath this line.
1. Nc1ncnc2c1c(-c1ccc(Cl)cc1)cn2[C@@H]1O[C@H](CO)[C@@H](F)[C@H]1O
2. Nc1ncnc2c1c(-c1ccc(Cl)c(F)c1)cn2[C@@H]1O[C@H](CO)[C@H](F)[C@H]1O
3. Nc1ncnc2c1c(Br)cn2[C@@H]1O[C@H](CO)[C@H](F)[C@H]1O

Result:
0.74
0.42
7.46

###

- protocol: Selectivity index, ratio of EC50 for human MRC5 cells to EC50 for antitrypanosomal activity against Trypanosoma brucei rhodesiense
- Type: toxicity
- measurement_conditions: read-out: Ratio EC50
metric: selectivity ratio
Numbers only.

Problem: Look at this compound and give its reported selectivity ratio. "COc1ncnc2c1ncn2[C@@H]1O[C@H](CO)[C@@H](F)[C@H]1O"
Result: 2

Continue with the next compound.
Problem: Which selectivity ratio value belongs to "Cc1cc(-c2cn([C@@H]3O[C@H](CO)[C@H](F)[C@H]3O)c3ncnc(N)c23)ccc1Cl" ?
Result: 6

###

Assign selectivity ratio to each entry below.
- protocol: Selectivity index, ratio of EC50 for cytotoxicity against human MRC5 cells to EC50 for antitrypanosomal activity against Trypanosoma cruzi Tulahuen CL2 infected in human MRC5 cells
- Assay type: toxicity, cell-based
- measurement_conditions: read-out: Ratio EC50
Give bare numbers.

The cases that follow already have their selectivity ratio on record.
Problem: Reported selectivity ratio for "Nc1ncnc2c1c(-c1ccc(Cl)c(F)c1)cn2[C@@H]1O[C@H](CO)[C@H](F)[C@H]1O" : what is it?
Result: 44

Problem: Okay, and "COc1ccc(-c2cn([C@@H]3O[C@H](CO)[C@@H](F)[C@H]3O)c3ncnc(N)c23)cc1" ?
Result: 2

# batch: return selectivity ratio for each of the 3 compounds below
1. Nc1ncnc2c1c(Br)cn2[C@@H]1O[C@H](CO)[C@@H](F)[C@H]1O
2. Nc1ncnc2c1c(Cl)cn2[C@@H]1O[C@H](CO)[C@@H](F)[C@H]1O
3. Nc1ncnc2c1c(F)cn2[C@@H]1O[C@H](CO)[C@@H](F)[C@H]1O

Result:
1. 779
2. 194
3. 22

###

- protocol: Selectivity index, ratio of EC50 for human MRC5 cells to EC50 for antitrypanosomal activity against Trypanosoma brucei brucei
- Type: toxicity
- measurement_conditions: read-out: Ratio EC50
Assignment: determine reported selectivity ratio for the given compounds.
Give bare numbers.

Problem: I have this compound here, "Nc1ncnc2c1c(-c1ccc(Cl)cc1)cn2[C@@H]1O[C@H](CO)[C@@H](F)[C@H]1O" , and I need its recorded selectivity ratio.
Result: 2

Please supply selectivity ratio for each of the following items, keeping them in order.
1. COc1ncnc2c1ncn2[C@@H]1O[C@H](CO)[C@@H](F)[C@H]1O
2. Nc1ncnc2c1c(Br)cn2[C@@H]1O[C@H](CO)[C@H](F)[C@H]1O
3. NC(=O)c1cn([C@@H]2O[C@H](CO)[C@@H](F)[C@H]2O)c2ncnc(N)c12

Result:
2
23
1

Field: selectivity ratio. Fill in for each record below.
1. Nc1ncnc2c1c(-c1ccc(Cl)c(Cl)c1)cn2[C@@H]1O[C@H](CO)[C@H](F)[C@H]1O
2. Cc1cc(-c2cn([C@@H]3O[C@H](CO)[C@H](F)[C@H]3O)c3ncnc(N)c23)ccc1Cl

Result:
1. 3
2. 3

###

- Test system: Trypanosoma cruzi
- protocol: Antitrypanosomal activity against Trypanosoma cruzi Tulahuen CL2 infected in human MRC5 cells assessed as inhibition of parasite growth incubated for 7 days by chlorophenol red-fl-D-galactopyranoside based spectrophotometric analysis
- Format: functional, organism-based
- measurement_conditions: Tulahuen CL2, MRC5, 168 h
metric: pEC50
One number for each entry, as −log10 of the molar value.

Consider the reported pEC50 for these molecules:
Problem: Notebook entry, Trypanosoma cruzi assay: pEC50 of "O=C(Cn1ccnc1[N+](=O)[O-])NCc1ccccc1" = ?
Result: 5.69

Problem: Consider next the molecule "Nc1ncnc2c1c(F)cn2[C@@H]1O[C@H](CO)[C@@H](F)[C@H]1O" in the same way.
Result: 6.60

Problem: Could you do the same for "Nc1ncnc2c1c(-c1ccccc1)cn2[C@@H]1O[C@H](CO)[C@@H](F)[C@H]1O" , please?
Result: 5.04

Problem: Also need "C=Cc1cn([C@@H]2O[C@H](CO)[C@@H](F)[C@H]2O)c2ncnc(N)c12" , thanks.
Result: 6.19

Problem: Cool, now "Nc1ncnc2c1ccn2[C@@H]1O[C@H](CO)[C@@H](F)[C@H]1O"
Result: 5.04

Could I get pEC50 for every one of these entries?
1. N#Cc1cn([C@@H]2O[C@H](CO)[C@@H](F)[C@H]2O)c2ncnc(N)c12
2. Nc1ncnc2c1c(C(F)(F)F)cn2[C@@H]1O[C@H](CO)[C@@H](F)[C@H]1O
3. Nc1ncnc2c1c(Cl)cn2[C@@H]1O[C@H](CO)[C@@H](F)[C@H]1O

Result:
1: 5.02; 2: 5.50; 3: 7.15

###

- protocol: Selectivity index, ratio of EC50 for cytotoxicity against mouse primary macrophage to EC50 for antileishmanial activity against Leishmania infantum MHOM/MA(BE)/67 infected in mouse primary peritoneal macrophages
- Assay type: toxicity
- measurement_conditions: read-out: Ratio EC50
metric: selectivity ratio
Give bare numbers.

Problem: Entry under review: "Nc1ncnc2c1c(-c1ccc(Cl)cc1)cn2[C@@H]1O[C@H](CO)[C@H](F)[C@H]1O" . Reported selectivity ratio?
Result: 1

Problem: Also check "Nc1ncnc2c1c(-c1ccc(Cl)c(Cl)c1)cn2[C@@H]1O[C@H](CO)[C@H](F)[C@H]1O"
Result: 2

I would be grateful if you could provide selectivity ratio for each of the following entries.
1. Nc1ncnc2c1c(C(F)(F)F)cn2[C@@H]1O[C@H](CO)[C@@H](F)[C@H]1O
2. Nc1ncnc2c1c(Br)cn2[C@@H]1O[C@H](CO)[C@@H](F)[C@H]1O

Result:
1
3
